system: C. sporogenes ATCC 19404; experiment: Antianaerobic activity, MIC by standard broth dilution method (Table II); type: cell-based; settings: Clostridium sporogenes, ATCC19404, 24 h, Test 3; read-out: Minimal Inhibitory Concentration (MIC)
Structures can show the parent of a compound that is named as a salt.
Measure Name: MIC
A complete answer gives the number followed by the unit.

**Query** Please provide the recorded MIC for Cl.Clc1ccc(NN=C(Cn2ccnc2)c2ccccc2)c(Cl)c1 , tested on C. sporogenes ATCC 19404.
**Result** 2.5 µg/mL

**Query** Moving on to Clc1ccc(NN=C(Cn2ccnc2)c2ccc(Br)cc2)c(Cl)c1 [HC-378, hydrochloride]
**Result** 25 µg/mL

**Query** Check Cl.Clc1cccc(Cl)c1NN=C(Cn1ccnc1)c1ccc(Br)s1 too.
**Result** 5 µg/mL

**Query** Field entry: Clc1ccc(NN=C(Cn2ccnc2)c2ccc(Cl)s2)c(Cl)c1 [HC-363, hydrochloride]
**Result** 7.5 µg/mL

**Query** Cl.FC(F)(F)c1ccc(C(Cn2ccnc2)=NNc2c(Cl)cc(Cl)cc2Cl)cc1 , same question.
**Result** 5 µg/mL
